Reference source for all entries: PubChem BioAssay (EPA / NIEHS)

Read-out: Keratin 19 (KRT19), KRT19 (gene 3880)
EXPERIMENT SUMMARY: LTEA_HepaRG_KRT19: Life Technologies and Expression Analysis (LTEA) Assay for Keratin 19 (KRT19) using HepaRG (AID 2283512)
ASSAY CONDITIONS: mRNA level, 48 h; actives raise or lower the signal
Calls of active or inactive are those of the source. The calls were made as follows: active = hit-call score of the fitted dose curve at least 0.9, where 1 is the maximum; inactive = score below 0.9.
MEASUREMENT KIND: outcome

O=C(O)COc1ccc(Cl)cc1Cl	inactive
N#CN	inactive
COP(=O)(OC)OC=C(Cl)Cl	inactive
CCCN(CCC)c1c([N+](=O)[O-])cc(C(F)(F)F)cc1[N+](=O)[O-]	inactive

* * *

Read-out: Cytochrome P450 3A4 (Homo sapiens) (UniProt P08684)
Sequence (P08684 whole entry, looked up): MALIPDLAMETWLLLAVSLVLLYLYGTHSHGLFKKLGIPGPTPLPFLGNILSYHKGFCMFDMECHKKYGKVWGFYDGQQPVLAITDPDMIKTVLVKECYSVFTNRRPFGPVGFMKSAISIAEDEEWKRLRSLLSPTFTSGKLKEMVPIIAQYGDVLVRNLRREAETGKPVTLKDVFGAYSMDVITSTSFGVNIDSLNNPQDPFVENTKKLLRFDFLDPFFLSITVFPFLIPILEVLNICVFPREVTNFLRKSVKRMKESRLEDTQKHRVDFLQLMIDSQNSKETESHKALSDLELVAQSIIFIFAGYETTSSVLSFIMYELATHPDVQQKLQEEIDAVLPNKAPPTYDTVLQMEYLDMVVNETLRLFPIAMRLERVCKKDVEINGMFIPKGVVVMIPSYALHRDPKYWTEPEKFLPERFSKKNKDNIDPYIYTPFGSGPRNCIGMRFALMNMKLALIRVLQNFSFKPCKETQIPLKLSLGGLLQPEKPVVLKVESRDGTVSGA
EXPERIMENT SUMMARY: CLD_CYP3A4_48hr: CellzDirect (CLD) Gene Expression Assay for xenobiotic metabolism (CYP3A4) at 48 hours (AID 2283698)
Inconclusive results are not listed. The source made the active and inactive calls. Rule for the calls: active = hit-call score of the fitted dose curve at least 0.9, where 1 is the maximum; inconclusive = response in the unintended direction; inactive = score below 0.9.
Mark one answer only. Choices: true (1) = active, false (0) = inactive

Ask: Tell me the recorded outcome of this test for `COP(=S)(OC)Oc1ccc([N+](=O)[O-])cc1` .
Result: true (1)

Ask: Tell me the recorded outcome of this test for `CCc1ccc(C(=O)NN(C(=O)c2cc(C)cc(C)c2)C(C)(C)C)cc1` .
Result: true (1)

Ask: Tell me the recorded outcome of this test for CC1(C)C(C=C(Cl)Cl)C1C(=O)OC(C#N)c1ccc(F)c(Oc2ccccc2)c1 (configuration not stated) .
Result: true (1)

Ask: Tell me the recorded outcome of this test for `CCN(CC)C(=O)SCc1ccc(Cl)cc1` .
Result: true (1)

Ask: Tell me the recorded outcome of this test for `CCCN(CCOc1c(Cl)cc(Cl)cc1Cl)C(=O)n1ccnc1` .
Result: true (1)

Ask: Tell me the recorded outcome of this test for `Cc1[nH]c(=O)n(C(C)(C)C)c(=O)c1Cl` .
Result: false (0)

Ask: Tell me the recorded outcome of this test for `Clc1ccccc1-c1nnc(-c2ccccc2Cl)nn1` .
Result: true (1)

Ask: Tell me the recorded outcome of this test for CCC(C)Nc1c([N+](=O)[O-])cc(C(C)(C)C)cc1[N+](=O)[O-] (configuration not stated) .
Result: true (1)

Ask: Tell me the recorded outcome of this test for CCC(C)(NC(=O)c1cc(Cl)c(C)c(Cl)c1)C(=O)CCl (configuration not stated) .
Result: true (1)

Ask: Tell me the recorded outcome of this test for `CNC(=O)Oc1ccccc1OC(C)C` .
Result: true (1)

Ask: Tell me the recorded outcome of this test for `Oc1cc(Cl)ccc1Oc1ccc(Cl)cc1Cl` .
Result: false (0)

Ask: Tell me the recorded outcome of this test for `COP(=O)(OC)OC=C(Cl)Cl` .
Result: false (0)

* * *

Read-out: growth arrest and DNA damage 45 (GADD45B), GADD45B (gene 4616)
EXPERIMENT SUMMARY: LTEA_HepaRG_GADD45B: Life Technologies and Expression Analysis (LTEA) Assay for growth arrest and DNA damage 45 (GADD45B) using HepaRG (AID 2283461)
ASSAY CONDITIONS: mRNA level, 48 h; actives raise or lower the signal
Calls of active or inactive are those of the source. Rule for the calls: active = hit-call score of the fitted dose curve at least 0.9, where 1 is the maximum; inactive = score below 0.9.
Mark one answer only. Choices: 1 = active, -1 = inactive

Ask: Tell me the recorded outcome of this test for `O=C(O)COc1ccc(Cl)cc1Cl` .
Result: -1

Ask: Tell me the recorded outcome of this test for `COP(=S)(OC)Oc1ccc([N+](=O)[O-])cc1` .
Result: -1

Ask: Tell me the recorded outcome of this test for CCC(C)Nc1c([N+](=O)[O-])cc(C(C)(C)C)cc1[N+](=O)[O-] (stereo unspecified) .
Result: -1

Ask: Tell me the recorded outcome of this test for `CCN(CC)C(=O)SCc1ccc(Cl)cc1` .
Result: -1

Ask: Tell me the recorded outcome of this test for `O=S(=O)(O)C(F)(F)C(F)(F)C(F)(F)C(F)(F)C(F)(F)C(F)(F)C(F)(F)C(F)(F)F` .
Result: -1

Ask: Tell me the recorded outcome of this test for `C#CCN1C(=O)COc2cc(F)c(N3C(=O)C4=C(CCCC4)C3=O)cc21` .
Result: -1

Ask: Tell me the recorded outcome of this test for `C[C@H]1[C@H](c2ccc(Cl)cc2)SC(=O)N1C(=O)NC1CCCCC1` .
Result: 1

Ask: Tell me the recorded outcome of this test for `O=[N+]([O-])c1c(Cl)c(Cl)c(Cl)c(Cl)c1Cl` .
Result: 1

Ask: Tell me the recorded outcome of this test for `Oc1cc(Cl)ccc1Oc1ccc(Cl)cc1Cl` .
Result: -1

Ask: Tell me the recorded outcome of this test for `O=C(Nc1ccccc1)Nc1cnns1` .
Result: -1

Ask: Tell me the recorded outcome of this test for `CC(C)N(C(=O)COc1nnc(C(F)(F)F)s1)c1ccc(F)cc1` .
Result: -1

Ask: Tell me the recorded outcome of this test for `CNC(=O)/C=C(\C)OP(=O)(OC)OC` .
Result: -1

Ask: Tell me the recorded outcome of this test for CC[C@H](C)[C@H]1O[C@]2(C=C[C@@H]1C)C[C@@H]1C[C@@H](C/C=C(\C)[C@@H](O[C@H]3C[C@H](OC)[C@@H](O[C@H]4C[C@H](OC)[C@@H](O)[C@H](C)O4)[C@H](C)O3)[C@@H](C)/C=C/C=C3\CO[C@@H]4[C@H](O)C(C)=C[C@@H](C(=O)O1)[C@]34O)O2 (tested in a mixture with another compound) .
Result: 1

Ask: Tell me the recorded outcome of this test for `O=C1c2ccccc2C(=O)N1SC(Cl)(Cl)Cl` .
Result: -1

Ask: Tell me the recorded outcome of this test for CC1(C)C(C=C(Cl)Cl)C1C(=O)OC(C#N)c1ccc(F)c(Oc2ccccc2)c1 (stereo unspecified) .
Result: -1

Ask: Tell me the recorded outcome of this test for `O=C(O)C(F)(F)C(F)(F)C(F)(F)C(F)(F)C(F)(F)C(F)(F)C(F)(F)F` .
Result: -1

Ask: Tell me the recorded outcome of this test for `COP(=S)(OC)Oc1ccc(SC)c(C)c1` .
Result: -1

Ask: Tell me the recorded outcome of this test for `N#CN` .
Result: -1

Ask: Tell me the recorded outcome of this test for `CCCN(CCC)c1c([N+](=O)[O-])cc(C(F)(F)F)cc1[N+](=O)[O-]` .
Result: -1

Ask: Tell me the recorded outcome of this test for `CNC(=O)CSP(=S)(OC)OC` .
Result: -1

Ask: Tell me the recorded outcome of this test for CCC(C)(NC(=O)c1cc(Cl)c(C)c(Cl)c1)C(=O)CCl (stereo unspecified) .
Result: -1
